System: 388556-164-R-J1-PDC complex spheroid viability
Test: Anticancer human tumor 388556-164-R-J1-PDC patient-derived colon adenocarcinoma cell line growth inhibition [RAS]
Conditions: second compound 0.000949 µM; first compound 1 µM; stronger effect = lower value
From the text: RAS pathway inhibitors in Combinations in Complex Spheroids A high-throughput screen of multi-cell type tumor spheroids was designed to identify active combinations of RAS pathway inhibitors and targeted small molecules. Complex spheroids include a stromal component modeled by human endothelial cells (HUVEC) and fibroblasts modeled by human mesenchymal stem cells (MSCs). […] Compounds. […] If the clinical Cmax for an agent had not been determined, the highest concentration tested was 10 microM. […]
quantity kind: viability, T/C (%)

[[record]]
compound = "CCC(CC)c1cc(NC2CCC(N)C2)n2nccc2n1 (centres undefined) + CCn1c(-c2cc(N3CCN(C)CC3)cnc2C(C)OC)c2c3cc(ccc31)-c1csc(n1)CC(NC(=O)C1CC1C)C(=O)N1CCCC(N1)C(=O)OCC(C)(C)C2"
recorded_result = 90.6

[[record]]
compound = "CC(Nc1ccc2c(c1)OCCn1cc(N3C(=O)OCC3C(F)F)nc1-2)C(N)=O (centres undefined) + CCn1c(-c2cc(N3CCN(C)CC3)cnc2C(C)OC)c2c3cc(ccc31)-c1csc(n1)CC(NC(=O)C1CC1C)C(=O)N1CCCC(N1)C(=O)OCC(C)(C)C2"
recorded_result = 66.6

[[record]]
compound = "CCN1CCN(Cc2ccc(Nc3ncc(F)c(-c4cc(F)c5nc(C)n(C(C)C)c5c4)n3)nc2)CC1 + CCn1c(-c2cc(N3CCN(C)CC3)cnc2C(C)OC)c2c3cc(ccc31)-c1csc(n1)CC(NC(=O)C1CC1C)C(=O)N1CCCC(N1)C(=O)OCC(C)(C)C2"
recorded_result = 75.2

[[record]]
compound = "CC(=O)OC12COC1CC(O)C1(C)C(=O)C(O)C3=C(C)C(OC(=O)C(O)C(NC(=O)OC(C)(C)C)c4ccccc4)CC(O)(C(OC(=O)c4ccccc4)C21)C3(C)C (centres undefined) + CCn1c(-c2cccnc2C(C)OC)c2c3cc(ccc31)N1CCOC(CC(NC(=O)C(C(C)C)N(C)C(=O)C3(F)CCN(C(=O)C#CC(C)(C)N(C)C)CC3)C(=O)N3CCCC(N3)C(=O)OCC(C)(C)C2)C1"
recorded_result = 73.7


---

Tested on: 388556-164-R-J1-PDC complex spheroid viability
Test: Anticancer human tumor 388556-164-R-J1-PDC cell line growth inhibition [RAS];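 note: spheroids exposed to compound for 7 days before readout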
Settings: compound alone; run of 08/20/2024
quantity kind: IC50

[[record]]
molecule = "CCn1c(-c2cccnc2C(C)OC)c2c3cc(ccc31)N1CCOC(CC(NC(=O)C(C(C)C)N(C)C(=O)C3(F)CCN(C(=O)C#CC(C)(C)N(C)C)CC3)C(=O)N3CCCC(N3)C(=O)OCC(C)(C)C2)C1 (stereo unspecified)"
quantity_kind = "IC50"
recorded_result = "> 300 nM"


---

Test system: 388556-164-R-J1-PDC complex spheroid viability
Assay: Anticancer human tumor 388556-164-R-J1-PDC cell line growth inhibition [RAS];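 note: spheroids exposed to compound for 7 days before readout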;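 for viability, T/C: 100% = DMSO vehicle control luminescence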
Conditions: second compound 0.1 µM; first compound 0.0316 µM; stronger effect = lower value
Kindly apply the following: yes if viability, T/C is less than 90%, no in every other case.

[[record]]
compound = "O=C(c1ccc(F)c(F)c1Nc1ccc(I)cc1F)N1CC(O)([C@@H]2CCCCN2)C1 + C#Cc1c(F)ccc2cc(O)cc(-c3ncc4c(N5CC6CCC(C5)N6)nc(OCC56CCCN5CC(F)C6)nc4c3F)c12"
class_assignment = "yes"

[[record]]
compound = "CC(Nc1ccc2c(c1)OCCn1cc(N3C(=O)OCC3C(F)F)nc1-2)C(N)=O (centres undefined) + C=CC(=O)N1CCN(c2nc(OCC3CCCN3C)nc3c(F)c(-c4nc(N)cc(C)c4C(F)(F)F)c(Cl)cc23)C(C)C1"
class_assignment = "no"

[[record]]
compound = "CCN1CCN(Cc2ccc(Nc3ncc(F)c(-c4cc(F)c5nc(C)n(C(C)C)c5c4)n3)nc2)CC1 + C#Cc1c(F)ccc2cc(O)cc(-c3ncc4c(N5CC6CCC(C5)N6)nc(OCC56CCCN5CC(F)C6)nc4c3F)c12"
class_assignment = "no"

[[record]]
compound = "Cc1nc(N2CCC3(CC2)COC(C)C3N)c(CO)nc1Sc1ccnc(N)c1Cl (centres undefined) + C=CC(=O)N1CCN(c2nc(OCC3CCCN3C)nc3c(F)c(-c4nc(N)cc(C)c4C(F)(F)F)c(Cl)cc23)C(C)C1"
class_assignment = "no"

[[record]]
compound = "C[C@@H](NC(=O)c1ncnc(N)c1Cl)c1ncc(C(=O)Nc2cc(C(F)(F)F)c(Cl)cn2)s1 + C=CC(=O)N1CCN(c2nc(OCC3CCCN3C)nc3c(F)c(-c4nc(N)cc(C)c4C(F)(F)F)c(Cl)cc23)C(C)C1"
class_assignment = "no"

[[record]]
compound = "CC(C)NCC(C(=O)N1CCN(c2ncnc3c2C(C)CC3O)CC1)c1ccc(Cl)cc1 (centres undefined) + C=CC(=O)N1CCN(c2nc(OCC3CCCN3C)nc3c(F)c(-c4nc(N)cc(C)c4C(F)(F)F)c(Cl)cc23)C(C)C1"
class_assignment = "no"

[[record]]
compound = "C=CC(=O)N1CCN(c2nc(OCC3CCCN3C)nc3c(F)c(-c4nc(N)cc(C)c4C(F)(F)F)c(Cl)cc23)C(C)C1 (centres undefined) + C#Cc1c(F)ccc2cc(O)cc(-c3ncc4c(N5CC6CCC(C5)N6)nc(OCC56CCCN5CC(F)C6)nc4c3F)c12"
class_assignment = "no"

[[record]]
compound = "CC1(O)CCCC1n1c(=O)c(C(F)F)cc2cnc(NC3CCN(S(C)(=O)=O)CC3)nc21 (centres undefined) + C#Cc1c(F)ccc2cc(O)cc(-c3ncc4c(N5CC6CCC(C5)N6)nc(OCC56CCCN5CC(F)C6)nc4c3F)c12"
class_assignment = "no"

[[record]]
compound = "CC(C)n1nc(-c2ccc3oc(N)nc3c2)c2c(N)ncnc21 + C#Cc1c(F)ccc2cc(O)cc(-c3ncc4c(N5CC6CCC(C5)N6)nc(OCC56CCCN5CC(F)C6)nc4c3F)c12"
class_assignment = "yes"

[[record]]
compound = "CC(Nc1ccc2c(c1)OCCn1cc(N3C(=O)OCC3C(F)F)nc1-2)C(N)=O (centres undefined) + C#Cc1c(F)ccc2cc(O)cc(-c3ncc4c(N5CC6CCC(C5)N6)nc(OCC56CCCN5CC(F)C6)nc4c3F)c12"
class_assignment = "no"

[[record]]
compound = "NC1c2ccccc2OC12CCN(c1cnc3c(N4CCCc5ncccc54)n[nH]c3n1)CC2 (centres undefined) + C#Cc1c(F)ccc2cc(O)cc(-c3ncc4c(N5CC6CCC(C5)N6)nc(OCC56CCCN5CC(F)C6)nc4c3F)c12"
class_assignment = "yes"

[[record]]
compound = "Nc1ccn(C2OC(CO)C(O)C2(F)F)c(=O)n1 (centres undefined) + C=CC(=O)N1CCN(c2nc(OCC3CCCN3C)nc3c(F)c(-c4nc(N)cc(C)c4C(F)(F)F)c(Cl)cc23)C(C)C1"
class_assignment = "yes"

[[record]]
compound = "CC1(O)CCCC1n1c(=O)c(C(F)F)cc2cnc(NC3CCN(S(C)(=O)=O)CC3)nc21 (centres undefined) + C=CC(=O)N1CCN(c2nc(OCC3CCCN3C)nc3c(F)c(-c4nc(N)cc(C)c4C(F)(F)F)c(Cl)cc23)C(C)C1"
class_assignment = "no"

[[record]]
compound = "CC(C)n1nc(-c2ccc3oc(N)nc3c2)c2c(N)ncnc21 + C=CC(=O)N1CCN(c2nc(OCC3CCCN3C)nc3c(F)c(-c4nc(N)cc(C)c4C(F)(F)F)c(Cl)cc23)C(C)C1"
class_assignment = "yes"

[[record]]
compound = "O=C(c1ccc(F)c(F)c1Nc1ccc(I)cc1F)N1CC(O)([C@@H]2CCCCN2)C1 + C=CC(=O)N1CCN(c2nc(OCC3CCCN3C)nc3c(F)c(-c4nc(N)cc(C)c4C(F)(F)F)c(Cl)cc23)C(C)C1"
class_assignment = "yes"

[[record]]
compound = "NC1c2ccccc2OC12CCN(c1cnc3c(N4CCCc5ncccc54)n[nH]c3n1)CC2 (centres undefined) + C=CC(=O)N1CCN(c2nc(OCC3CCCN3C)nc3c(F)c(-c4nc(N)cc(C)c4C(F)(F)F)c(Cl)cc23)C(C)C1"
class_assignment = "yes"

